test.description: AUC in mouse at 20 mg/kg, po
Format: ADME, organism-based
Parameters: dose 20 mg/kg, route oral
measurement.context: plasma
endpoint.name: AUC

// returns reported AUC for input NC(=O)[C@H]1CN(c2ccc([C@H]3CC[S@+]([O-])CC3)c(F)c2)C(=O)O1
48300 ng·h/mL
